Item-by-item account of melting point

So for CC(=O)SC1CC(=O)N1C(Cl)C(=O)OCc1ccc([N+](=O)[O-])cc1 (stereo not drawn) , the logged melting point turned out to be 72 to 73 °C

Others:
So for CCn1c(=O)n(N(Cc2ccccc2)Cc2ccccc2)c(=O)c2cc(F)c(F)cc21 , the logged melting point turned out to be 133 to 135 °C

So for COc1ccc(-c2ccc(C(N)=O)cc2)cc1-c1cccc([N+](=O)[O-])c1 , the logged melting point turned out to be 201 to 205 °C

So for COc1ccccc1N1CCN(CCCNC(=O)c2cccc3c(=O)c(C)c(-c4cccnc4)oc23)CC1 , the logged melting point turned out to be 134 to 137 °C

So for Brc1ccc2c(Br)c3cc(Br)ccc3c(Br)c2c1 , the logged melting point turned out to be 293 to 296 °C

So for COc1ccc2c(OC(C)C)c(C(N)=O)ccc2c1 , the logged melting point turned out to be 183 to 184 °C

So for CCCCCCCc1ccc(NC2=NCCS2)cc1 , the logged melting point turned out to be 81 to 82 °C

So for N=C(N)c1cccc(Oc2cc(C(N)=O)cc(Oc3cccc(C(=N)N)c3)n2)c1 , the logged melting point turned out to be > 210 °C

So for CCOC(=O)NOC(=O)CCCCC(=O)ONC(=O)OCC , the logged melting point turned out to be 60 °C

So for C#CCN(c1nnc(C)c2ccccc12)c1nc2ccccc2n1-c1ccccc1 , the logged melting point turned out to be 50 to 53 °C

So for CCOC(=O)c1ccc(-c2cnc(-c3ccc(C(F)(F)F)cc3)s2)cc1 , the logged melting point turned out to be 174 to 176 °C

So for O=C(NN=Cc1ccc2ccccc2n1)c1ccccc1 , the logged melting point turned out to be 171 °C

So for Cc1c(-c2cc(CN(C)C)ccc2F)sc2nc(N)[nH]c(=O)c12 , the logged melting point turned out to be 230 to 250 °C

So for C#CCOC(=O)Oc1ccc(S(=O)(=O)c2ccc(OC(=O)OCC#C)cc2)cc1 , the logged melting point turned out to be 112 to 114 °C

So for Cc1ccc(NC(=O)c2nc(C)cc(C#N)c2C)nc1 , the logged melting point turned out to be 212 °C

So for CCCCCCCCCCN1C(=O)OC2(CCNCC2)C1(C)O (stereo not drawn) , the logged melting point turned out to be 139 to 140 °C

So for COC(=O)Nc1cccc(C)c1COc1cccn2c(C=O)c(C)nc12 , the logged melting point turned out to be 196 to 198 °C

====

Item-by-item account of melting point

Use these answered entries as a reference point.
So for CCCc1nc2cccc(C(=S)OC)c2n1Cc1ccc(-c2ccccc2-c2nc(=O)o[nH]2)cc1 , the logged melting point turned out to be 220 to 221 °C

So for COc1ccc(CC(=O)NC(NC(=NC#N)Nc2cc(F)ccc2F)C(C)(C)C)cc1OC (centres undefined) , the logged melting point turned out to be 190 to 191 °C

So for COC1CCC2C3CCC4CC(Cl)CCC4(C)C3CCC12C (centres undefined) , the logged melting point turned out to be 151 to 154 °C

So for COc1ccc(Oc2ccc(C(=O)CCC#N)cc2)cc1 , the logged melting point turned out to be 88 °C

So for Cc1csc2ccc3[nH]c4c(c3c12)CN(Cc1ccccc1)CC4 , the logged melting point turned out to be 93 °C

Others:
So for Cc1ccc(C(C#N)=NOS(C)(=O)=O)cc1C , the logged melting point turned out to be 91 to 95 °C

So for CC(C)C1(C)N=C(c2nc3ccc(OC(F)F)cc3cc2C(=O)O)NC1=O (centres undefined) , the logged melting point turned out to be 208 to 209 °C

So for COc1cc(O)c2c(=O)c(OC)c(-c3ccc(OC(=O)C(O)C(O)C(=O)O)c(OC)c3)oc2c1 (centres undefined) , the logged melting point turned out to be 179 to 180 °C

So for CCn1c(C)c(C)c(=O)c(C(=O)O)c1-c1ccc(Cl)cc1 , the logged melting point turned out to be 240 to 242 °C

So for O=C(O)CC(=O)Nc1cc2ccccc2cc1C(=O)O , the logged melting point turned out to be 225 to 227 °C

So for c1ccc(-c2ccc3c(c2)sc2c4ccc(-c5ccccc5)cc4sc32)cc1 , the logged melting point turned out to be > 300 °C

So for N#CC(=NO)C(=O)NC(=O)NCCCCCC(N)=O , the logged melting point turned out to be 187 to 189 °C

So for O=[N+]([O-])c1ccc(C(O)C(COc2ccccc2)N2CCC(Cc3ccccc3)CC2)cc1 (centres undefined) , the logged melting point turned out to be 159 to 162 °C

So for O=C(O)c1c(Cl)cc(Cl)c(Cl)c1C(=O)O , the logged melting point turned out to be 150 to 153 °C

So for CC(Cc1ccc(OCC(N)=O)cc1)NCC(OCCO)c1ccc(O)cc1 (centres undefined) , the logged melting point turned out to be 145 to 160 °C
